Data provenance is PubChem BioAssay.

test: MRP1 drug-resistance reversers in H69AR cells – cell-based, doxorubicin co-treatment, pilot screen (AID 601); conditions: H69AR cells + 2 uM doxorubicin, CellTiter-Glo, 72 h; at 10 µM; active compounds read high
property name: differential viability (reversal) (%)
API: value field is a number in %; no unit string.

differential viability (reversal) for CCOC(=O)Cc1nnc(NC(=O)c2ccccc2OCC)s1 ?
9.93

Would you kindly share the measured differential viability (reversal) for Cc1ccc(C(=O)Nc2c(C(=O)N3CCOCC3)cnn2-c2ccccc2)cc1 ?
16.5

What differential viability (reversal) value was documented for this compound, O=C(c1ccco1)N1CCN(C(=O)C2CC(c3ccc(F)cc3)=NO2)CC1 (stereo unspecified) ?
0.74

---
Can you share its differential viability (reversal)? I mean this compound: COCCn1cc(C(=O)c2ccccc2OCC(=O)Nc2cc(C)on2)cc(C#N)c1=O
6.63

Any idea what differential viability (reversal) was measured for Cc1occc1C(=O)N1CCN(c2ncccn2)CC1 ?
8.91

Please report the recorded differential viability (reversal) for O=c1oc2c3c4c(cc2s1)CCCN4CCC3 .
4.35

Quick check: differential viability (reversal) of COc1ccccc1N(CC(=O)NCc1ccccn1)S(C)(=O)=O ?
4.02

If you can, please state the reported differential viability (reversal) value of CCOC(=O)C1CCN(Cc2ccc(F)c(Br)c2)CC1 .
-7.29

Report differential viability (reversal) for Cc1ccc(S(=O)(=O)c2nc(-c3ccco3)oc2SCC(=O)NCC2CCCO2)cc1 (stereo unspecified) please.
6.32

Consider the compound CC(O)CN1C(=O)C(CC(=O)Nc2ccc(Cl)cc2)SC1=Nc1ccccc1 (stereo unspecified) and give its measured differential viability (reversal).
-10.2

Need differential viability (reversal), item O=C(COC(=O)C1CC2C=CC1C2)Nc1ccc2c(c1)OC(F)(F)O2 (stereo unspecified)
-1.17

====

Quick reference for Her2 level among some compounds
target: Receptor tyrosine-protein kinase erbB-2 (Homo sapiens) (UniProt P04626); test: Her2 expression decrease, cell viability multiplex – SKBR3 breast tumor cells, AlphaScreen, ATP viability, primary screen (AID 461); details: 18-24 h, at 10 µM, active compounds read low;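 also: lower value means less Her2 protein in the cells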
Sequence (P04626 whole entry, looked up): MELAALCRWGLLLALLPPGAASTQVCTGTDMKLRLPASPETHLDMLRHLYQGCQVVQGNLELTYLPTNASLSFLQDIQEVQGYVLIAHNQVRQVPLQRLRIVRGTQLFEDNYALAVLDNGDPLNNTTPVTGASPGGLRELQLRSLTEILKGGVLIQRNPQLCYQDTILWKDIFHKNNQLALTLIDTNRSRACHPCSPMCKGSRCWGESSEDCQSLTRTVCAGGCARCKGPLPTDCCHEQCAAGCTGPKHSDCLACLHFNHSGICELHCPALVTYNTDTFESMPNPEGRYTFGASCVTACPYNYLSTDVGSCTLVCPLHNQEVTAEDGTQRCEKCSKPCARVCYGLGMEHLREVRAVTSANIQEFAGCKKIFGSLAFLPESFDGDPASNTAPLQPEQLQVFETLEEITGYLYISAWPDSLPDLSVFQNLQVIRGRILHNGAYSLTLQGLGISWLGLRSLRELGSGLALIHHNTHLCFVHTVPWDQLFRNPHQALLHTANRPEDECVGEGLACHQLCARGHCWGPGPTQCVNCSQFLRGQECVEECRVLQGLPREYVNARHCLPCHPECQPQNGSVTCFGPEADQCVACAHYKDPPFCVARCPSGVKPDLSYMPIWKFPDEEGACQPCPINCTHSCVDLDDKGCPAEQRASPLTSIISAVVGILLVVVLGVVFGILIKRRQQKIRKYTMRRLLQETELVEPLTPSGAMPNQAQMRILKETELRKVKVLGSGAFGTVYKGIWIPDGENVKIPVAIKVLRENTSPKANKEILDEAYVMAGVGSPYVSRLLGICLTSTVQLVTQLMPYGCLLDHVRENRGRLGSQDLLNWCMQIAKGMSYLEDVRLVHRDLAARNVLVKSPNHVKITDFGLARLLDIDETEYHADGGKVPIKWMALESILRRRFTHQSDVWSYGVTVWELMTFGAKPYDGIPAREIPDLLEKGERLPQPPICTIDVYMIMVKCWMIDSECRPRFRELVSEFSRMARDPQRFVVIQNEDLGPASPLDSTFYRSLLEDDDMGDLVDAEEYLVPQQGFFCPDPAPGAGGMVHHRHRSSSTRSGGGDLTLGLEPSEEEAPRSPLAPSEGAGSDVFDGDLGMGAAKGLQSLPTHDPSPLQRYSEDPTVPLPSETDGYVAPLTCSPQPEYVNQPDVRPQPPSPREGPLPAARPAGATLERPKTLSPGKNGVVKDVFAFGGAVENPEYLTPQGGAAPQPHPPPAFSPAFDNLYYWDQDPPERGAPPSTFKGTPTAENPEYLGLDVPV
Numeric only. Scale: %

Some entries whose results are on file:
Looking for the measured Her2 level of Cc1nc2c(-c3ccc(F)cc3)c(C)nn2c(C)c1CCC(=O)NC(C)CCc1ccco1 (stereo not given) , can you help?
59

Need Her2 level of COc1ccc(S(=O)(=O)NCc2ccc3c(c2)OCO3)cc1C(=O)O , thanks.
84.5

Look up Her2 level: CCOn1c(=O)c(=O)n(OCc2ccccc2)c2ccccc21
88

Next:
Any idea what Her2 level was measured for Cc1ccc(-c2cc(C(=O)Nc3cc(C)on3)c3ccccc3n2)c(C)c1 ?
99.5

Would you kindly share the measured Her2 level for CC(C)CC1NC2(C(=O)N(C)c3ccccc32)C2C(=O)N(C(C)C)C(=O)C12 (stereo not given) ?
110

====

Recorded measurements of RAM network inhibition, one per entry
test: RAM signaling pathway blockade in yeast – S. cerevisiae, Pdr1DBD-CYC8 efflux-inhibited sensitized strain, primary screen (AID 1298);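 also: 0% = DMSO untreated cells without growth and 100% = 10 µM 1-NA-PP1 full growth; higher means more yeast growth rescued from 5-FOA killing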; conditions: S. cerevisiae cbk1-as DSE1-URA3 strain, 5-FOA growth OD615, 2 d; at 50 µM; active compounds read high
Only the number, expressed in %, is required.

Fill in: RAM network inhibition of CCOc1cccc(N2C(=O)CC(NCc3ccc(S(N)(=O)=O)cc3)C2=O)c1 (stereo unspecified) is ___
2.35

Fill blank: measured RAM network inhibition of the compound Cc1ccnc(NC2c3ccccc3C(=O)N2Cc2ccccc2Cl)c1 (stereo unspecified) is ____.
3.54

Would you kindly share the measured RAM network inhibition for CC1(C)CC(=O)C=C(Nc2ccc(OCC(F)(F)C(F)F)cc2)C1 ?
3.07

Give its RAM network inhibition value. Item: CCOC(=O)C1=C(C)N(C)C(=O)NC1c1ccccc1OC (stereo unspecified)
2.01

So what's the measured RAM network inhibition for this one? COc1cccc(-c2cc(C(=O)N3CCCCCC3)no2)c1
0.68

Reported RAM network inhibition for Cc1cccc(Cn2c(SCC(=O)Nc3ccccc3)nc3c2c(=O)[nH]c(=O)n3C)c1 : what is it?
5.01

Would you mind telling me what RAM network inhibition value was observed for O=C(CN1CCN(Cc2ccc(F)cc2)C1=O)NCc1cccs1 ?
2.12

# get_value(readout='RAM network inhibition', item= Cc1ccccc1OCc1nnc2n1CC(C)S2 (stereo unspecified) )
-0.06

Requested field: RAM network inhibition. Item: CCCc1cc(C(=O)Nc2sc(C(C)=O)c(C)c2C(=O)OCC)no1
3.25

Given CCOC(=O)c1sc2nc(NC(=O)C(C)(C)C)sc2c1C , state its recorded RAM network inhibition.
3.13

Entry O=C(NCCCN1CCOCC1)c1cc(-c2ccc(O)cc2)on1 has what RAM network inhibition?
0.12

====

test: S. cerevisiae growth inhibition in restrictive medium, OD615, pilot screen, restrictive growth control, yeast lifespan reduction project (AID 706); details: OD615, 48 h, at 10 µM, active compounds read high;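 also: modified DeaD lifespan yeast strain shifted to restrictive glucose medium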
Outcome label depends on growth inhibition relative to -10%: at/above gives 1, below gives 0.

Here are 4 compounds together with their reported answers.
Form field: growth inhibition at least -10%? Entry: CCn1cc(S(=O)(=O)CC(=O)Nc2ccc3c(c2)OCCO3)c2ccccc21
0

Would you say CCN1CCN(C(c2cccs2)C(C)NC(=O)c2cccc(OC)c2)CC1 (stereo not given) shows growth inhibition at minimum -10%?
0

Does Cc1cc(C)cc(NC(=O)CSc2nnc(Cn3c(=O)sc4ccccc43)n2C)c1 have a reported growth inhibition of at least -10%?
0

Hi, just wondering whether Cn1cccc1Cc1nnc(SCC(=O)NCC2CCCO2)n1-c1ccc(F)cc1 (stereo not given) shows growth inhibition of -10% or higher.
1

--- query ---
Determine whether this compound has growth inhibition no lower than -10%: Cc1nnc(SCCn2c(N(C)Cc3ccccc3)nc3c2c(=O)[nH]c(=O)n3C)s1
1

====

Known growth inhibition of a selection of compounds
assay: S. cerevisiae growth inhibition in permissive medium (OD615), pilot counter-assay for S. cerevisiae lifespan shortening project, permissive growth control (AID 705); details: OD615, 24 h, at 10 µM, active compounds read high
Give just the numeric value; % need not be written.

Here is how some compounds turned out for growth inhibition.
Looking for the measured growth inhibition of CCOC(=O)C1=C(CS(=O)(=O)c2ccc(F)c(C)c2)NC(=O)NC1c1ccc(O)c(O)c1 (stereo unspecified) , can you help?
0.775

Value lookup for growth inhibition; key = CCN1CCN(C(c2cccs2)C(C)NC(=O)c2ccccc2)CC1 (stereo unspecified)
-5.51

More entries:
Entry CN(C)c1ccc(NC(=O)Cn2cc3c(n2)CCCC3)cc1 has what growth inhibition?
11.9

Name the recorded growth inhibition for Cc1onc(-c2ccccc2Cl)c1C(=O)Nc1cnn(Cc2ccccc2)c1 .
-12.3

Recorded growth inhibition of CCOC(=O)/C(C#N)=C(/C)c1ccc(OC)cc1 , please.
-14.7

Entry COC(=O)c1ccc(NC(=O)C2C3CCC(C3)C2C(=O)O)cc1 (stereo unspecified) has what growth inhibition?
10.2

Dear colleague, I am looking for the recorded growth inhibition of the following compound: CCCc1cc(=O)oc2c(C)c3occ(C)c3cc12
-2.79

Param item = CC(C)(C)SCCNC(=O)CSc1ccccc1 ; retrieve measured growth inhibition.
-0.57

growth inhibition for CCC(C)Sc1nc2c(cnn2-c2ccc(C)cc2)c(=O)[nH]1 (stereo unspecified) ?
-13

Recorded growth inhibition of CCOC(=O)c1ccc(N2Cc3cc(C)c(C)cc3C2)cc1O , please.
-10.9

# get_value(readout='growth inhibition', item= CC(C)C(=O)Nc1ccc(-c2nc3cccnc3o2)cc1 )
-11.7

====

assay: doxorubicin toxicity protection in MRP-1 cells – H69AR cells, CellTiter-Glo, duplicate, MRP-1 activator project, pilot screen (AID 807); settings: H69AR viability with doxorubicin, CellTiter-Glo luminescence; at 10 µM; active compounds read high;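 also: compound pretreatment 18-22 h then 72 h combined with doxorubicin; 0% = doxorubicin alone and 100% = vehicle without doxorubicin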
property name: viability increase (%)
Lab book: enter the figure in %, no units written.

Worked examples follow.
Sample O=C(Cn1nc(Cc2ccncc2)c2ccccc2c1=O)N1CCN(C(=O)c2ccco2)CC1 — what was its viability increase?
-1.96

Given the molecule CCCCSc1nc2c(cnn2-c2ccc(C)c(C)c2)c(=O)[nH]1 , what is its reported viability increase?
-6.91

What does the record list as viability increase for CN(C(=O)c1ccc2c(c1)OCO2)C1(C(=O)NC2CCCCC2)CCCCC1 ?
-1.06

Return reported viability increase; argument: COCCCNC(=O)c1ccc(CS(=O)(=O)c2ccc(OC)cc2)o1
-1.48

Now for the molecule whose viability increase we want.
I'd like to know its viability increase. The molecule in question is CN1CCc2c(sc3c2C(=O)NC(c2cccc(OC(=O)c4cccs4)c2)N3)C1 (stereo not given)
-4.85

====

test: HUVEC growth inhibition – cell-based, human, primary screen (AID 575); settings: HUVEC proliferation, CellTiter-Glo luminescence, 72 h; at 10 µM; active compounds read low;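 also: 100% = median of untreated cell wells with 0.1% DMSO on each plate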
Here the recorded viability is given for each entry.
Enter your answer as a number in %; do not include the unit.

Take a look at these entries with their results.
Quick check: viability of C=CCc1ccccc1OCCCCN1CCCC1 ?
77.1

Would you mind telling me what viability value was observed for CCN1CCN(C(CNC(=O)c2ccc3c(c2)OCO3)c2cccnc2)CC1 (stereo unspecified) ?
86.4

Give the measured viability of Cc1cc(C)nc(SCc2ccc3nonc3c2)n1 .
89.9

Query (molecule): CCn1c(-c2cc(Br)ccc2O)n[nH]c1=S ; field requested: viability
107

Field request: viability | item: CCn1cc(C(=O)N2CCOCC2)c(=O)c2cc(S(=O)(=O)N(C)C3CCCCC3)ccc21
108

Others:
# get_value(readout='viability', item= C=CCn1c(COc2ccc(CC)cc2)nnc1SC/C(O)=C(\C#N)c1nc2ccccc2[nH]1 )
59.8

Requested field: viability. Item: COC(=O)C1=C(C)NC2=C(C(=O)CCC2)C1c1coc2ccccc2c1=O (stereo unspecified)
97.7

State the recorded viability for this entry: Cn1c(=O)c2c(nc(CN3CCN(Cc4ccccc4)CC3)n2Cc2cccc(Cl)c2)n(C)c1=O
69.9

Find the recorded viability belonging to Cc1cc(C)n2c(SCCN3C(=O)c4ccccc4C3=O)nnc2n1 and report it.
111

I would be grateful if you could share the reported viability for COc1ccc(C(=O)NCc2nnc(SC)n2C2CCCCC2)cc1 .
81.2

Can you look up the measured viability of CC(C)C(CO)NC(=O)CC(=O)NC(CO)C(C)C (stereo unspecified) for me?
101
